tested on: STK33; settings: concentration: 1 μM, replicates: in singlicate; n = 1;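 further: KINOMEscan kinase panel screen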
Readout Type: %Inh (%)
Note: unit % is implicit; provide only the numeric part.

Cl.c1ccc(Cn2ncc3cc(Nc4ncnc5ccccc45)ccc32)cc1 [GW273749] | 0
CC(C)N1CCC(n2cnc(-c3ccc(F)cc3)c2-c2ccnc(N)n2)CC1 [SB-223132] | 0
N#Cc1ccc(Oc2ccc(Nc3ncnc4cc[nH]c34)cc2Cl)cc1 | 27

## Task Return %Inh (reported value) for this compound: CCCc1ccc(S(=O)(=O)NC2CCN(c3ccnc(Nc4ccc(OC)cc4)n3)C2)cc1 (centres unmarked) [GSK1379737]
## Result 0

## Task Return %Inh (reported value) for this compound: O=C(Nc1n[nH]c2nc(-c3ccco3)c(Br)cc12)c1ccc(CN2CCCC2)cc1.O=C(O)[C@H](O)[C@@H](O)C(=O)O [SB-742352]
## Result 0

## Task Return %Inh (reported value) for this compound: Nc1nccc2scc(-c3ccc4c(c3)CCN4C(=O)Cc3cc(F)ccc3F)c12 [GSK2587663]
## Result 0

## Task Return %Inh (reported value) for this compound: COC(=O)c1cccc(NC(=O)NCCNc2ccnc(Nc3ccc(F)cc3)n2)c1 [GSK1379883]
## Result 0

## Task Return %Inh (reported value) for this compound: Nc1nc(-c2cccnc2)c(-c2ccnc3ccccc23)s1 [GW684083]
## Result 14

## Task Return %Inh (reported value) for this compound: Cn1cc(-c2ccc3c(c2)CCN3C(=O)Cc2cccc(C(F)(F)F)c2)c2c(N)ncnc21 [GSK2606414]
## Result 0

## Task Return %Inh (reported value) for this compound: O=C(Nc1ccccc1)Nc1ccc(Oc2ccc3nccn3n2)cc1
## Result 9

## Task Return %Inh (reported value) for this compound: OCCOCCn1ccc2ncnc(Nc3ccc(Oc4cccc(Cl)c4)c(Cl)c3)c21
## Result 0

----------
test system: NLK; conditions: concentration: 1 μM, replicates: in singlicate; n = 1
Please mark t if the recorded %Inh is equal to or greater than 30%, and f if it falls below.

Sample answers from the record:
CCCc1ccc(S(=O)(=O)NC2CCN(c3ccnc(Nc4ccc(OC)cc4)n3)C2)cc1 (centres unmarked) | f
CC(=O)Nc1n[nH]c2ncc(-c3ccccc3)cc12 | f
COc1cc2c(Nc3cccc(NC(=O)c4ccccc4)c3)ncnc2cc1OCCCN1CCOCC1 | t
Cl.O=S(=O)(c1cccc(F)c1)c1ccc(Nc2ncnc3cc(Br)sc23)cc1Cl | t
Cc1ccc(NC(=O)c2cccc(C#N)c2)cc1-c1ccc(C(=O)Nc2ccncc2)cc1 | f

## Task Check this molecule for %Inh at or above 30%: Cc1cc(N2CCC(NS(=O)(=O)c3ccc(F)cc3)CC2)nc(Nc2cccc(C#N)c2)n1.O=C(O)C(F)(F)F
## Result t

## Task Check this molecule for %Inh at or above 30%: O=c1cc(N2CCOCC2)nc2n(Cc3cccc(Cl)c3)ccn12
## Result f

## Task Check this molecule for %Inh at or above 30%: C[C@@H]1CCN(C(=O)CO)C[C@@H]1N(C)c1ncnc2[nH]ccc12
## Result t

----------
Item-by-item account of %Inh
tested on: ACVR1; details: concentration: 1 μM, replicates: in singlicate; n = 1
Note: unit % is implicit; provide only the numeric part.

A selection of reference data follows.
CSc1nn2c(=O)cc(N3CCOCC3)nc2n1Cc1cccc(Cl)c1Cl [GSK2347225] | 18
O=c1cc(N2CCOCC2)nc2n(Cc3cccc(Cl)c3)ccn12 [GSK2296823] | 0
N#Cc1ccc(Oc2ccc(Nc3ncnc4cc[nH]c34)cc2Cl)cc1 | 1
Cl.c1ccc(Cn2ccc3cc(Nc4ncnc5ccccc45)ccc32)cc1 [GW275568] | 10
CCc1nc(-c2cccc(N(C)S(=O)(=O)c3ccccc3)c2)c(-c2ccnc(Nc3ccc(N4CCN(C(C)=O)CC4)nc3)n2)s1 [GSK1645895] | 0

// moving on: another record for %Inh
## Task Return %Inh (reported value) for this compound: Nc1nc(-c2ccccn2)c(-c2ccnc3ccccc23)s1 [GW548057]
## Result 18
